Tested on: A375 (melanoma)
Assay: MTT cytotoxicity assay on A375 cells
Assay type: cell-based, human
Conditions: Homo sapiens, A-375, 24 h incubation, read-out: IC50 ± SD, A375
Listed below: IC50 values for each entry.

Answered examples (2):
compound=O=C1NCCN1c1cc2ccccc2cn1 value_kind=IC50 test_value="> 200 µg/mL"
compound="COc1cc([C@@H]2c3cc4c(cc3[C@@H](O[C@@H]3O[C@@H]5CO[C@@H](C)O[C@H]5[C@H](O)[C@H]3O)[C@H]3COC(=O)[C@H]23)OCO4)cc(OC)c1O [Etoposide, etoposide, reference compound]" value_kind=IC50 test_value="10.2 µg/mL"

Ask: Would you mind telling me what IC50 value was observed for `CN1CCN(c2cc3ccccc3cn2)C1=O` ?
Reply: > 200 µg/mL

Ask: Would you mind telling me what IC50 value was observed for `O=C1CCN1c1cc2ccccc2cn1` ?
Reply: > 200 µg/mL

Ask: Would you mind telling me what IC50 value was observed for `CCN1CCN(c2cc3ccccc3cn2)C1=O` ?
Reply: > 200 µg/mL
